# Tested on: IGROV-1
# assayInfo: Cytotoxicity against human IGROV1 cells assessed as cell growth at 10 uM
# Assay type: functional
# assayContext: read-out: Activity
Label f if growth at 10 µM falls below 90%; label t in every other case.

As a guide, the following entries are already answered.
COc1cc(C)cc(-c2nn(CC#N)cc2-c2ccnc(-c3ccc(C(C)=O)cc3)c2)c1	t
Cc1cc(O)cc(-c2nn(CC#N)cc2-c2ccnc(-c3ccc(Oc4ccccc4)cc3)c2)c1	f
COc1cc(C)cc(-c2nn(CC#N)cc2-c2ccnc(-c3ccc(Oc4ccccc4)cc3)c2)c1	t

Given COc1cc(C)cc(-c2c(-c3ccnc(-c4cccc(NC(C)=O)c4)c3)cnn2CC#N)c1 , state whether its growth at 10 µM is at least 90%.
t

Evaluate COc1cc(C)cc(-c2c(-c3ccnc(-c4ccc(N(C)C)cc4)c3)cnn2CC#N)c1 : growth at 10 µM at minimum 90%?
f

Textbook exercise: given the entry Cc1cc(O)cc(-c2nn(CC#N)cc2-c2ccnc(-c3ccc(N(C)C)cc3)c2)c1 , state whether its growth at 10 µM is greater than or equal to 90%.
f

Decide: growth at 10 µM of Cc1cc(O)cc(-c2nn(CC#N)cc2-c2ccnc(-c3ccccc3)c2)c1 >= 90%?
f

Determine whether measured growth at 10 µM meets or exceeds 90% for COc1cc(C)cc(-c2nn(CC#N)cc2-c2ccnc(-c3ccc(N(C)C)cc3)c2)c1
f

* * *

# Tested on: SW-620
# assayInfo: Cytotoxicity against human SW620 cells assessed as cell growth at 10 uM after 48 hrs by sulforhodamine B assay
# Type: functional
# assayContext: SW-620, 48 h, read-out: Activity
// returns No unless growth at 10 µM is strictly below 10%, in which case Yes

Look over these answered cases.
COc1cc(C)cc(-c2nn(CC#N)cc2-c2ccc(-c3cccc(C(C)=O)c3)nc2)c1	Yes
COc1cc(C)cc(-c2nn(CC#N)cc2-c2ccnc(-c3ccc(N(C)C)cc3)c2)c1	No
Cc1cc(O)cc(-c2nn(CC#N)cc2-c2ccnc(-c3ccc(N(C)C)cc3)c2)c1	Yes
Cc1cc(O)cc(-c2nn(CC#N)cc2-c2ccnc(-c3ccc(Oc4ccccc4)cc3)c2)c1	Yes
COc1cc(C)cc(-c2c(-c3ccnc(-c4ccc(N(C)C)cc4)c3)cnn2CC#N)c1	No

Moving on to the next molecule.
Hello, I'm reviewing records and need to know if growth at 10 µM of COc1cc(C)cc(-c2c(-c3ccnc(-c4ccc(C(C)=O)cc4)c3)cnn2CC#N)c1 is below 10%. Could you check?
No

* * *

# Tested on: CCRF-CEM
# assayInfo: Cytotoxicity against human CCRF-CEM cells assessed as cell growth at 10 uM after 48 hrs by sulforhodamine B assay
# Type: functional
# assayContext: read-out: Activity
Threshold check on growth at 10 µM: at or above 10% gives True, strictly below gives False.

Solved cases (2 shown):
COc1cc(C)cc(-c2c(-c3ccnc(-c4ccc(N(C)C)cc4)c3)cnn2CC#N)c1	False
Cc1cc(O)cc(-c2nn(CC#N)cc2-c2ccnc(-c3ccc(Oc4ccccc4)cc3)c2)c1	True

Could you tell me if the measured growth at 10 µM of COc1cc(C)cc(-c2c(-c3ccnc(-c4ccc(C(C)=O)cc4)c3)cnn2CC#N)c1 reaches 10% or more?
True

Does the compound COc1cc(C)cc(-c2nn(CC#N)cc2-c2ccc(-c3cccc(C(C)=O)c3)nc2)c1 have recorded growth at 10 µM that is 10% or more?
True

In plain terms: is recorded growth at 10 µM at least 10% for Cc1cc(O)cc(-c2nn(CC#N)cc2-c2ccnc(-c3ccc(N(C)C)cc3)c2)c1 ?
False
